Listing: cytotoxicity at 10 µM of selected compounds
experiment: Toxicity liver stage against HepG2, at 10uM; type: cell-based; set-up: test concentration 10 uM, cell line HepG2-A16-CD81EGFP; details: human, HepG2-A16-CD81EGFP cells; read-out: INHIBITION
Return type: number; implicit unit %.

// below: answered compounds
Compound: CSc1ncc(CN2C[C@@H]3CC[C@H]2CN(C2CCOCC2)C3)cn1
cytotoxicity at 10 µM, %: -0.943

Compound: COc1cccc(C(CO)NC(=O)Cc2cccc(C)c2)c1 (configuration not stated)
cytotoxicity at 10 µM, %: 4.53

Query string: Which cytotoxicity at 10 µM is listed for CC1c2ncc(Cn3cncn3)n2CCN1C1CCOCC1 (configuration not stated) ?
Result string: 4.28

Query string: Quick one: COCC(NC(=O)NCc1ccc(C)c(F)c1)c1ccco1 (configuration not stated)
Result string: 4.96

Query string: Okay, and OCCOc1cc(F)ccc1NCc1ccc(F)c(F)c1 ?
Result string: -6.38

Query string: Try this compound too: CCN(CC)Cc1cc(C(=O)N2CCCC(O)(CO)C2)c(C)o1 (configuration not stated)
Result string: 7.87

---

assay: Toxicity liver stage against HepG2, at 10uM; assay type: cell-based; parameters: test concentration 10 uM, cell line HepG2-A16-CD81EGFP; conditions: human, HepG2-A16-CD81EGFP cells; read-out: INHIBITION
Each entry below carries its reported cytotoxicity at 10 µM.
Answer in %, number only, no unit symbol.

Query string: Value lookup for cytotoxicity at 10 µM; key = COCC(=O)NS(=O)(=O)c1ccc(F)c(F)c1
Result string: -6.49

Query string: Please give the result for CC(C)Cc1cc(C(=O)NCc2nnc[nH]2)[nH]n1 too.
Result string: -2.95

Query string: What would you report for O=C(CSc1ccncc1)N1C[C@@H]2CC[C@H]1CN(Cc1cccnc1)C2 ?
Result string: 4.66

Query string: Further, for Cc1nc(-c2cccc(C(=O)N(C)CC(C)O)c2)cs1 (centres undefined) ?
Result string: 2.68

Query string: Could you do the same for O=C(NCC(=O)N1CCCC(c2ccccc2)CC1)c1ccoc1 (centres undefined) , please?
Result string: -4.31

Query string: Also need CCOc1ccc(Cl)c(C(=O)NC(Cc2ccccc2)C(N)=O)n1 (centres undefined) , thanks.
Result string: 15.4

---

Recorded measurements of cytotoxicity at 10 µM, one per entry
test: Toxicity liver stage against HepG2, at 10uM; type: cell-based; parameters: test concentration 10 uM, cell line HepG2-A16-CD81EGFP; settings: human, HepG2-A16-CD81EGFP cells; read-out: INHIBITION
# output: bare number, implied unit %

Example cases with answers are listed next.
Compound: O=C1NCC2(CCCN(C(=O)c3c[nH]nc3-c3cccs3)C2)O1 (stereo unspecified)
Unit abbreviation: %
cytotoxicity at 10 µM: 8.32
--
Compound: Cc1ccc(C)c(-n2ncc(C(=O)NCC3COC(C)(C)O3)c2N)c1 (stereo unspecified)
Unit abbreviation: %
cytotoxicity at 10 µM: -4.06
--
Compound: CC(C)c1nnc2n1CCN(c1nn3cc(C(C)(C)C)nc3s1)C2
Unit abbreviation: %
cytotoxicity at 10 µM: 7.44

Query string: Bench note: what cytotoxicity at 10 µM did OC(CN(Cc1ccccc1)Cc1ccncc1)c1cccs1 (stereo unspecified) show?
Result string: -3.65

Query string: Further, for O=C(NCCN1CCOCC1)c1cc2c(s1)CCN2Cc1cccnc1 ?
Result string: -7.98

Query string: Moving on to the next compound: CCO[C@@H]1CC[C@H]2[C@H]1OCCN2C(=O)c1ccc(C)o1
Result string: -149

Query string: What would you report for COc1cccc(Cn2ncnc2CCSC)c1 ?
Result string: -1.22

Query string: Note, next up: COc1cccc([C@H]2CN(C(=O)c3scc4c3CCCC4)C[C@@H]2N)c1
Result string: -3.45

Query string: Now try CC(C)NC(=O)N1CCC(c2nnc3ccc(C(=O)N(C)C)cn23)C1 (stereo unspecified) .
Result string: 8.79

Query string: Request: NC(=O)CN1CCC(C(=O)NCCc2nc(-c3ccccc3)cs2)CC1
Result string: -7.85

Query string: Now the same for COc1ccc(C(=O)C2CCCN(c3cc(C#N)ccn3)C2)cc1F (stereo unspecified)
Result string: -0.0739

---

test: Toxicity liver stage against HepG2, at 10uM; assay type: cell-based; parameters: test concentration 10 uM, cell line HepG2-A16-CD81EGFP; conditions: human, HepG2-A16-CD81EGFP cells; read-out: INHIBITION
Measurement kind: cytotoxicity at 10 µM (%)
Supply the numeric figure in %, leaving out any unit text.

These recorded examples may help you get a feel for the data.
Compound: Cn1cnnc1CC1CCN(Cc2nn(C)c3cccc(Cl)c23)CC1
Unit abbreviation: %
cytotoxicity at 10 µM: -1.62

Compound: CC(=O)NCC(=O)N1Cc2cc(-c3cc[nH]n3)ccc2C1c1cnco1 (configuration not stated)
Unit abbreviation: %
cytotoxicity at 10 µM: 13.5

Compound: CCSCc1cccc(NCc2cccnc2)c1
Unit abbreviation: %
cytotoxicity at 10 µM: -1.32

Compound: C[S+]([O-])c1nncn1CC(=O)c1cccc(C(F)(F)F)c1 (configuration not stated)
Unit abbreviation: %
cytotoxicity at 10 µM: -0.661

Query string: // returns reported cytotoxicity at 10 µM for input CC(C)c1nn(C)c(N(C)C)c1CNC1CCN(CC2CC2)CC1
Result string: 8.96

Query string: Okay, and CCOC(=O)CCNC(=O)c1cc(Cl)cc2cccnc12 ?
Result string: 15

Query string: // query: Cc1nocc1C(=O)N1CCc2c(CN(C)C)nn(C)c2C1
Result string: -0.567

Query string: Please give the result for Cc1nc2c(c(=O)n1C)CCN(C(=O)CCc1ccccc1O)CC2 too.
Result string: 0.53

Query string: Please give the result for Cc1nnc(CN(C)CCCOc2ccc(Cl)cc2)o1 too.
Result string: -1.69

Query string: Check CCc1ncncc1C(=O)Nc1ccc2ccn(CCN(C)C)c2c1 too.
Result string: 6.11

Query string: Next record, please: Cc1ccc(CN2CCO[C@@H]3[C@@H](OCc4cccnc4)CC[C@@H]32)o1
Result string: 8.37

Query string: Record: COc1ccc2c(c1)CN(C)C(=O)CCN2CC(O)C(C)(C)C (configuration not stated)
Result string: 4.17

Query string: Now consider NC(=O)CC1CCN(C(=O)CCOc2ccc(Cl)cc2)CC1 and answer again.
Result string: -7.98

Query string: Cool, now Cc1cnc(C(=O)N2CCCC(n3cncn3)C2)cn1 (configuration not stated)
Result string: -2.97

Query string: And for c1cncc(CC2CN(c3cccnc3)CCO2)c1 (configuration not stated) ?
Result string: -0.41

Query string: CCCN(CC1CC1)C(=O)Cn1ccccc1=O , same question.
Result string: 9.09

---

# Lookup of reported cytotoxicity at 10 µM keyed by entry
assay: Toxicity liver stage against HepG2, at 10uM; assay type: cell-based; parameters: test concentration 10 uM, cell line HepG2-A16-CD81EGFP; settings: human, HepG2-A16-CD81EGFP cells; read-out: INHIBITION
Please reply with the bare figure in % and do not write the unit itself.

Compound: Cc1ccc(C(=O)N2CCN(C)C3(CCC(=O)N(C)CC3)C2)c(F)c1 (configuration not stated)
Measurement kind: cytotoxicity at 10 µM
Unit abbreviation: %
Measured: -1.68

Compound: Cc1ccc(C2COCCN2C(=O)c2ccc(C)s2)o1 (configuration not stated)
Measurement kind: cytotoxicity at 10 µM
Unit abbreviation: %
Measured: -3.9

Compound: CCc1cc(NCCc2ccc(O)cc2)n2nccc2n1
Measurement kind: cytotoxicity at 10 µM
Unit abbreviation: %
Measured: -16.3

Compound: CC(C)OC(=O)N1C[C@@H]2CC[C@H]1CN(C(=O)c1ccccc1)C2
Measurement kind: cytotoxicity at 10 µM
Unit abbreviation: %
Measured: 0.608

Compound: Cc1cc(C)n(CC2CN(Cc3cc(C)on3)CCO2)n1 (configuration not stated)
Measurement kind: cytotoxicity at 10 µM
Unit abbreviation: %
Measured: -9.71

Query string: Query (compound): Cc1ccsc1C(=O)NC1CCS(=O)(=O)c2ccccc21 (configuration not stated) ; field requested: cytotoxicity at 10 µM
Result string: 2.93

Query string: What about CCN1CC(=O)NCC12CCN(C(=O)c1ccco1)C2 (configuration not stated) ?
Result string: -2.86

Query string: Try this compound too: COc1cccc(Nc2nc(C3CCCNC3)c3ccccn23)c1 (configuration not stated)
Result string: -0.47

---

assay: Toxicity liver stage against HepG2, at 10uM; assay type: cell-based; parameters: test concentration 10 uM, cell line HepG2-A16-CD81EGFP; settings: human, HepG2-A16-CD81EGFP cells; read-out: INHIBITION
// cytotoxicity at 10 µM lookup, one value per entry
The figure you give is taken to be in %; do not add the unit.

Use these answered entries as a reference point.
Compound: O=C(CCC1CCN(C2CSCCSC2)CC1)NCC1CCCO1 (stereo not drawn)
cytotoxicity at 10 µM, %: 6.5
--
Compound: O=C(N[C@@H]1CN(c2ncccn2)C[C@@H]2CCCO[C@@H]21)c1cnccn1
cytotoxicity at 10 µM, %: 0.199
--
Compound: Cn1cc(CN2CCC3(CC2)CC(Nc2nccs2)CO3)cn1 (stereo not drawn)
cytotoxicity at 10 µM, %: -79.6

Query string: Name the recorded cytotoxicity at 10 µM for CN(CC(=O)NCc1ccccn1)C1CCCN(c2cccnn2)C1 (stereo not drawn) .
Result string: -9.06

Query string: Another compound: COCC(=O)N(C)Cc1nc(N2CCCC2)ncc1-c1ccncc1
Result string: 12.3

Query string: Now the compound Clc1snnc1CN1CCCCC1Cn1cncn1 (stereo not drawn)
Result string: -0.575

Query string: Also need COc1cc(CNC(=O)N(Cc2ccc(F)cc2F)C2CC2)ccn1 , thanks.
Result string: -9.17

Query string: Follow-up item: Cc1cc2cc(C(=O)N3C[C@H](O)[C@]4(CCCO4)C3)ccc2o1
Result string: -10.9

Query string: Let us now turn to CN(CC(=O)N(CCC#N)c1ccccc1)C1CCc2ccccc21 (stereo not drawn)
Result string: 3.15

Query string: Proceed to O=C(NCc1ccccc1F)Nc1ccn(CCN2CCOCC2)n1
Result string: -7.85

Query string: // same read-out, input: Cc1n[nH]c(C)c1-c1nccnc1CC1CCN(C(C)C)CC1
Result string: -5.36

Query string: Try this compound next: Cc1cc(F)ccc1CNCCn1cccn1
Result string: -10.2

Query string: Now the compound Cn1c(=O)ccn(CC(=O)N2CCCC(n3cccn3)C2)c1=O (stereo not drawn)
Result string: -8.92

Query string: Lookup CC(C)NC(=O)N1CCC(c2nnc3n2CCNC3)CC1
Result string: 10.4

Query string: Follow-up item: CC(C)c1nn(C)c(N(C)C)c1CNCc1cccc2cccnc12
Result string: -11.2

Query string: Thanks! And Fc1ccc(-c2noc([C@@H]3Cc4nc[nH]c4CN3)n2)cc1 ?
Result string: -5.9

Query string: Would you kindly repeat that for CCCc1cc(NCc2nc(COC)no2)n2nccc2n1 ?
Result string: -0.916

Query string: Request: Cc1ccc(C(=O)NC2CCN(CC(=O)N(C)c3ccccc3)CC2)o1
Result string: -3.73

Query string: Item: CCc1cnc(NCC(CC)N2CCOCC2)nc1 (stereo not drawn)
Result string: 12.8

Query string: # repeat for CCc1noc(CNCC2CCCN2c2cccnn2)n1 (stereo not drawn)
Result string: 2.11

Query string: Moving on to CC(C)c1nc(CSc2nnc(Cn3cncn3)o2)cs1
Result string: 3.19

Query string: Ok, now Cn1ncc2c1NC(=O)CC2c1cc2c(cc1Cl)OCO2 (stereo not drawn)
Result string: 55.6

Query string: And then c1cnc(N2CCCC(NCc3ccc(-n4ccnc4)cc3)C2)nc1 (stereo not drawn) , what is it?
Result string: -7.55

Query string: Next record, please: Cc1cc(F)ccc1N1CCC(N2C[C@@H](C)[C@@](C)(O)C2)CC1
Result string: 8.79

The values you see were collected from ChEMBL document CHEMBL4513216.
